These data points were gathered from patent US8623902B2.

Test system: Pyrenophora teres
Assay: Action against Pyrenophora teres (net blotch) on barley
Assay type: in vivo
Conditions: foliar, 96 h, barley leaf segments sprayed with 0.02% active ingredient, assessed 4 days after inoculation, read-out: preventive fungicidal activity (inhibition)
# inhibition at 0.02 % strength per record follows
EXPERIMENTAL_READOUT: inhibition at 0.02 % strength

In [3]: df
Out[3]:
                                   molecule  measured_result
0  Cn1cc(C(=O)N2CCC[C@H]2COc2c(Cl)cc(Cl)cc2Cl)c(C(F)F)n1            ≥ 80%
1  Cn1cc(C(=O)N2CCC[C@H]2C(=O)c2ccc(Cl)cc2)c(C(F)F)n1            ≥ 50%
2  Cn1cc(C(=O)N2CCCC2Cc2c(Cl)cccc2Cl)c(C(F)F)n1 (stereo not drawn)            ≥ 80%
3  CO/N=C/c1cc(Cl)c(OC[C@@H]2CCCN2C(=O)c2cn(C)nc2C(F)F)c(Cl)c1            ≥ 80%
4  Cn1cc(C(=O)N2CCC[C@H]2C(F)c2ccc(Cl)cc2)c(C(F)F)n1 (stereo partly drawn)            ≥ 80%
5  Cc1cccc(C)c1OC[C@@H]1CCCN1C(=O)c1cn(C)nc1C(F)F            ≥ 80%
